Source: PubChem BioAssay AID1926

- target.of.assay: VIM-2 metallo-beta-lactamase (Pseudomonas aeruginosa) (UniProt Q932Y6)
- method.summary: VIM-2 CCF2 hydrolysis inhibition, assay artifact filter – biochemical, FRET readout, CCF2 substrate, artefact control for selective VIM-2 inhibitor project, dose response (AID 1926)
- condition.label: purified VIM-2, CCF2 FRET substrate hydrolysis
pIC50: −log10 of the molar value.
metric: pIC50

> print(dat)
                                    molecule  metric  result
 1  COc1cc2c(cc1OC)C(C)N(C(=O)c1nccnc1C(=O)O)CC2 (stereo unspecified)   pIC50    5.24
 2  CSC[C@H](NC(=O)COc1cc2c(c3oc(=O)c(C)c(C)c13)CCC(C)(C)O2)C(=O)O   pIC50    5.38
 3  Cc1cccc(C2c3[nH]c4ccccc4c3CCN2C(=O)c2cc(CC(C)C)[nH]c(=O)n2)n1 (stereo unspecified)   pIC50    5.56
 4  Cc1ccccc1C(=O)Nc1nnc(SCC(=O)NCc2ccco2)s1   pIC50    5.95
 5  CC(=O)c1ccc(-c2ccc(Cn3c(C)nc4cc(N)c(C)nc43)cc2)cc1   pIC50    5.20
 6               O=C(O)Cn1cccc1C(=O)c1ccccc1   pIC50    5.39
 7           O=C(O)C(NC(=O)c1ccccc1)=C(Cl)Cl   pIC50    5.11
 8             C=C(C)Cn1c(-c2cccs2)n[nH]c1=S   pIC50    5.86
 9              C=C(c1cccc2ccccc12)P(=O)(O)O   pIC50    5.66
10                    CCCn1c(C(C)C)n[nH]c1=S   pIC50    5.46
11        CCCC(=O)Nc1nnc(SCC(=O)NCc2cccs2)s1   pIC50    5.33

* * *

- target.of.assay: VIM-2 metallo-beta-lactamase (Pseudomonas aeruginosa) (UniProt Q932Y6)
- method.summary: VIM-2 CCF2 hydrolysis inhibition, assay artifact filter – biochemical, FRET readout, CCF2 substrate, artefact control for selective VIM-2 inhibitor project, dose response (AID 1926)
- condition.label: purified VIM-2, CCF2 FRET substrate hydrolysis
pIC50: −log10 of the molar value.
metric: pIC50

> print(dat)
                                    compound  result
 1   CC(C)(C)C(=O)Nc1nnc(SCC(=O)NCc2cccs2)s1    6.06
 2               CCCCn1c(-c2sccc2C)n[nH]c1=S    6.02
 3  Cc1nn(CCc2n[nH]c(=S)n2-c2cccc(Cl)c2)c(C)c1[N+](=O)[O-]    5.37
 4  O=C(CSc1nnc(NC(=O)c2cc(Br)ccc2Cl)s1)NCC1CCCO1 (stereo not given)    5.23
 5   Cn1c(-c2sccc2OCc2ccc(Cl)cc2Cl)n[nH]c1=S    6.11
 6        CCCCn1c(-c2nn(C)c(C)c2Cl)n[nH]c1=S    5.70
 7       CC(C)(C)C(=O)Nc1nnc(CSCc2ccccc2F)s1    5.71
 8  O=P(O)(O)c1ccccc1OCCCCCOc1ccccc1P(=O)(O)O    6.06
 9   CSc1nc(SCC(=O)O)c2c3c(sc2n1)COC(C)(C)C3    5.27
10           S=c1[nH]nc(-c2cccs2)n1Cc1ccccc1    6.05
11         Fc1ccccc1-c1n[nH]c(=S)n1Cc1ccccc1    5.38
12               CCCCn1c(-c2ccoc2C)n[nH]c1=S    5.37
13  S=c1[nH]nc(-c2ccccc2)n1CC1CCCO1 (stereo not given)    5.38
14              S=c1[nH]nc(C2CC2)n1Cc1ccccc1    6.03
15  O=c1[nH]c2c(s1)C(c1cccnc1)C1C3CCC(C3)C1S2 (stereo not given)    7.47
